targetSystem: the molecule itself
protocolSummary: AUC
Recorded pKd for the following proteins
Remember the convention: pKd equals -log10 of concentration in molar.

- protein: "pSer188-N_(175–245) GFP (domain or fragment, phosphoserine at 188) GSRGGSQASSRSSSRSRNSSRNSTPGSSRGTSPARMAGNGGDAALALLLLDRLNQLESKMSGKGQQQQGQT"
  numericReadout: 3.63

Next item in the queue.
-- ask Please look up its pKd: WT-N_(175–245) GFP, GFP-tagged N_(175–245) (domain or fragment) GSRGGSQASSRSSSRSRNSSRNSTPGSSRGTSPARMAGNGGDAALALLLLDRLNQLESKMSGKGQQQQGQT
-- reply 4.11
